Ref: paper PMC10450872

# study.target: hKOR (OPRK1) (Homo sapiens, UniProt P41145)
# Construct: 3HA (triple haemagglutinin tag); expressed in transfected cells
# Sequence (P41145 whole entry): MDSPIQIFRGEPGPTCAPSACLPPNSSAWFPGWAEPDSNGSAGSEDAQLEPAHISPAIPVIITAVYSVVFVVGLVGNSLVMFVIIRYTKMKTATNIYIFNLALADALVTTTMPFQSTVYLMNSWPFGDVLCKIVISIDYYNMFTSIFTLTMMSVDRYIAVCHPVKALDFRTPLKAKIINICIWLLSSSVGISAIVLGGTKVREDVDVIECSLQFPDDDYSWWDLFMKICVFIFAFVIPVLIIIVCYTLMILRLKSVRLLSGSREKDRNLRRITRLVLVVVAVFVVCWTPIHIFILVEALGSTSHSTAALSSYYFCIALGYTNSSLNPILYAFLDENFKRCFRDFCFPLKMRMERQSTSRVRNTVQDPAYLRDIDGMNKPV
# test.method.notes: cell-based
# details: CHO, read-out: cAMP Emax
endpoint.label: Emax (%)

* COC(=O)[C@@H]1C[C@H](OC(C)=O)C(=O)[C@@H]2[C@H]3C[C@@H](c4cccc(C)c4)CC(=O)[C@@H]3CC[C@]21C | 105
* COC(=O)C1CC(OC(C)=O)C(=O)C2C3CC(c4ccccc4)CC(=NOC(C)=O)C3CCC12C (stereo not drawn) | 105
* COC(=O)[C@@H]1C[C@H](OC(C)=O)C(=O)[C@@H]2[C@H]3C[C@@H](c4cccnc4)CC(=O)[C@@H]3CC[C@]21C | 105
* COC(=O)[C@@H]1C[C@H](OC(C)=O)C(=O)[C@@H]2[C@H]3C[C@@H](c4cccc(O)c4)CC(=O)[C@@H]3CC[C@]21C [22a] | 97
* COC(=O)[C@@H]1C[C@H](OC(C)=O)C(=O)[C@@H]2[C@H]3C[C@H](c4cccc(O)c4)CC(=O)[C@@H]3CC[C@]21C [22b] | 95
* COC(=O)[C@@H]1C[C@H](OC(C)=O)C(=O)[C@@H]2[C@H]3C[C@H](c4ccccc4)CC(=O)[C@@H]3CC[C@]21C [24b] | 100

----------
# study.target: hKOR (OPRK1) (Homo sapiens, UniProt P41145)
# Construct: 3HA (triple haemagglutinin tag); expressed in transfected cells
# test.method.notes: cell-based
# details: CHO, read-out: cAMP Emax
endpoint.label: Emax (%)

• COC(=O)C1CC(OC(C)=O)C(=O)C2C3CC(c4ccoc4)CC(=NO)C3CCC12C (stereo not drawn) = 105
• COC(=O)[C@@H]1C[C@H](OC(C)=O)C(=O)[C@@H]2[C@H]3C[C@@H](c4ccccc4)CC(=O)[C@@H]3CC[C@]21C [24a] = 98
• COC(=O)[C@@H]1C[C@H](OC(C)=O)C(=O)[C@@H]2[C@H]3C[C@@H](c4cccc(Cl)c4)CC(=O)[C@@H]3CC[C@]21C = 103
• COC(=O)[C@@H]1C[C@H](OC(C)=O)C(=O)[C@@H]2[C@H]3C[C@@H](c4ccnc5ccccc45)CC(=O)[C@@H]3CC[C@]21C = 95
• COC(=O)[C@@H]1C[C@H](OC(C)=O)C(=O)[C@@H]2[C@H]3C[C@@H](Sc4ccccc4)CC(=O)[C@@H]3CC[C@]21C = 92
• COC(=O)[C@@H]1C[C@H](OC(C)=O)C(=O)[C@@H]2[C@H]3C[C@@H](c4ccccc4)CC(=O)N[C@@H]3CC[C@]21C = 107

----------
# study.target: hKOR (OPRK1) (Homo sapiens)
# Construct: 3HA (triple haemagglutinin tag); expressed in transfected cells
# test.method.notes: cell-based
# details: cAMP pEC50
pEC50: −log10 of the molar value.
Each entry gets false if its pEC50 stays under 7, and true if its pEC50 is 7 or above.

- COC(=O)[C@@H]1C[C@H](OC(C)=O)C(=O)[C@@H]2[C@H]3C[C@@H](c4ccsc4)CC(=O)[C@@H]3CC[C@]21C [compound 19]: true
- COC(=O)C1CC(OC(C)=O)C(=O)C2C3CC(c4ccoc4)CC(O)C3CCC12C (centres unmarked) [41b]: true
- COC(=O)[C@@H]1C[C@H](OC(C)=O)C(=O)[C@@H]2[C@H]3C[C@@H](c4ccc(C)cc4)CC(=O)[C@@H]3CC[C@]21C [compound 28]: false
- COC(=O)[C@@H]1C[C@H](OC(C)=O)C(=O)[C@@H]2[C@H]3C[C@@H](c4ccncc4)CC(=O)[C@@H]3CC[C@]21C [compound 21]: false
- COC(=O)[C@@H]1C[C@H](OC(C)=O)C(=O)[C@@H]2[C@H]3CC=CC(=O)[C@@H]3CC[C@]21C [17a]: false
- COC(=O)[C@@H]1C[C@H](OC(C)=O)C(=O)[C@@H]2[C@H]3C[C@H](c4cccc(O)c4)CC(=O)[C@@H]3CC[C@]21C [22b]: false
- COC(=O)[C@@H]1C[C@H](OC(C)=O)C(=O)[C@@H]2[C@H]3C[C@@H](c4ccnc5ccccc45)CC(=O)[C@@H]3CC[C@]21C [compound 25]: false
- COC(=O)C1CC(OC(C)=O)C(=O)C2C3CC(c4ccccc4)CC(=NOC(C)=O)C3CCC12C (centres unmarked) [compound 39]: true
- COC(=O)[C@@H]1C[C@H](OC(C)=O)C(=O)[C@@H]2[C@H]3C[C@@H](c4cccc(O)c4)CC(=O)[C@@H]3CC[C@]21C [22a]: false
- COC(=O)C1CC(OC(C)=O)C(=O)C2C3CC(c4ccccc4)CC(=NO)C3CCC12C (centres unmarked) [compound 37]: true
- COC(=O)[C@@H]1C[C@H](OC(C)=O)C(=O)[C@@H]2[C@H]3C[C@@H](c4ccccc4)CC(=O)[C@@H]3CC[C@]21C [24a]: true
- COC(=O)[C@@H]1C[C@H](OC(C)=O)C(=O)[C@@H]2[C@H]3C[C@@H](c4cccc(C)c4)CC(=O)[C@@H]3CC[C@]21C [compound 30]: true

----------
Entries and their pEC50 values follow.
# study.target: hKOR (OPRK1) (Homo sapiens, UniProt P41145)
# Construct: 3HA (triple haemagglutinin tag); expressed in transfected cells
# test.method.notes: cell-based
# details: cAMP pEC50
pEC50: −log10 of the molar value.
endpoint.label: pEC50

• CON=C1CC(c2ccccc2)CC2C1CCC1(C)C(C(=O)OC)CC(OC(C)=O)C(=O)C21 (stereo not shown) = 8.53
• COC(=O)[C@@H]1C[C@H](OC(C)=O)C(=O)[C@@H]2[C@H]3C[C@@H](c4c[nH]c5ccccc45)CC(=O)[C@@H]3CC[C@]21C = 6.48
• COC(=O)[C@@H]1C[C@H](OC(C)=O)C(=O)[C@@H]2[C@H]3C[C@@H](c4cccnc4)CC(=O)[C@@H]3CC[C@]21C = 6.33
• COC(=O)[C@@H]1C[C@H](OC(C)=O)C(=O)[C@@H]2[C@H]3C[C@@H](c4cccc(Cl)c4)CC(=O)[C@@H]3CC[C@]21C = 8.37
• COC(=O)C1CC(OC(C)=O)C(=O)C2C3CC(c4ccoc4)CC(=NO)C3CCC12C (stereo not shown) = 9.46
• COC(=O)C1CC(OC(C)=O)C(=O)C2C3CC(c4ccoc4)CC(O)C3CCC12C (stereo not shown) [41a] = 8.30
• COC(=O)[C@@H]1C[C@H](OC(C)=O)C(=O)[C@@H]2[C@H]3C[C@@H](c4coc5ccccc45)CC(=O)[C@@H]3CC[C@]21C = 7.38

----------
# study.target: hKOR (Homo sapiens, UniProt P41145)
# Construct: β-galactosidase enzyme fragment for EFC (ProLink tag of the PathHunter system; name and presence on the receptor from own knowledge); host or cells: U2OS-β-arrestin2-EFC-hKOR (PathHunter) cells
# Sequence (P41145 whole entry, the tested form may be a part): as the sequence (P41145 whole entry) above
# test.method.notes: cell-based
# details: read-out: βarrestin2 Emax
Use 90% as the dividing line for Emax, with the line itself on the criterion met side and lower values as criterion not met.

* COC(=O)[C@@H]1C[C@H](OC(C)=O)C(=O)[C@@H]2[C@H]3C[C@@H](c4coc5ccccc45)CC(=O)[C@@H]3CC[C@]21C [compound 26] | criterion met
* COC(=O)[C@@H]1C[C@H](OC(C)=O)C(=O)[C@@H]2[C@H]3C[C@@H](c4c[nH]c5ccccc45)CC(=O)[C@@H]3CC[C@]21C [compound 27] | criterion not met
* COC(=O)[C@@H]1C[C@H](OC(C)=O)C(=O)[C@@H]2[C@H]3C[C@@H](c4ccccc4)CC(=O)N[C@@H]3CC[C@]21C [compound 35] | criterion not met
* COC(=O)[C@@H]1C[C@H](OC(C)=O)C(=O)[C@@H]2[C@H]3C[C@@H](c4cccc(O)c4)CC(=O)[C@@H]3CC[C@]21C [22a] | criterion not met
* CON=C1CC(c2ccccc2)CC2C1CCC1(C)C(C(=O)OC)CC(OC(C)=O)C(=O)C21 (stereo not shown) [compound 38] | criterion met
* COC(=O)[C@@H]1C[C@H](OC(C)=O)C(=O)[C@@H]2[C@H]3C[C@H](c4ccccc4)CC(=O)[C@@H]3CC[C@]21C [24b] | criterion met
* COC(=O)[C@@H]1C[C@H](OC(C)=O)C(=O)[C@@H]2[C@H]3C[C@@H](c4ccccc4)CC(=O)[C@@H]3CC[C@]21C [24a] | criterion met
* COC(=O)C1CC(OC(C)=O)C(=O)C2C3CC(c4ccoc4)CC(=NO)C3CCC12C (stereo not shown) [compound 36] | criterion not met
* COC(=O)C1CC(OC(C)=O)C(=O)C2C3CC(c4ccoc4)CC(O)C3CCC12C (stereo not shown) [41b] | criterion not met
* COC(=O)[C@@H]1C[C@H](OC(C)=O)C(=O)[C@@H]2[C@H]3C[C@@H](c4ccc(Cl)cc4)CC(=O)[C@@H]3CC[C@]21C [compound 29] | criterion not met
* COC(=O)[C@@H]1C[C@H](OC(C)=O)C(=O)[C@@H]2[C@H]3C[C@@H](c4ccsc4)CC(=O)[C@@H]3CC[C@]21C [compound 19] | criterion met
* COC(=O)[C@@H]1C[C@H](OC(C)=O)C(=O)[C@@H]2[C@H]3C[C@@H](c4ccc(C)cc4)CC(=O)[C@@H]3CC[C@]21C [compound 28] | criterion not met
* COC(=O)[C@@H]1C[C@H](OC(C)=O)C(=O)[C@@H]2[C@H]3C[C@@H](c4cccc(C)c4)CC(=O)[C@@H]3CC[C@]21C [compound 30] | criterion met
